Provenance of the data: ChEMBL document CHEMBL2311269

target: NAD-dependent protein deacetylase sirtuin-1 (Homo sapiens, UniProt Q96EB6, I347A); assay: Inhibition of N-terminal His6-tagged SIRT1 I347A mutant (unknown origin) expressed in Escherichia coli BL21(DE3) using ac-RHKKac-AMC as substrate after 45 mins by fluorometric analysis
metric: pIC50
Note on units: pIC50 is unitless, being -log10 of a concentration expressed in mol/L.

Item `O=C(c1cc(O)ccc1O)c1coc2ccc(O)cc12` : provide pIC50
3.38

---

molecular target: NAD-dependent protein deacetylase sirtuin-1 (Homo sapiens, UniProt Q96EB6, I347A); assay: Mixed type inhibition of N-terminal His6-tagged SIRT1 I347A mutant (unknown origin) expressed in Escherichia coli BL21(DE3) using NAD+ as substrate by Lineweaver-Burk plot analysis in presence of ac-RHKKac-AMC
metric: pKi
Note on units: pKi is unitless, being -log10 of a concentration expressed in mol/L.

Item `O=C(c1cc(O)ccc1O)c1coc2ccc(O)cc12` : provide pKi
3.76

---

target: NAD-dependent protein deacetylase sirtuin-1 (Homo sapiens, UniProt Q96EB6, F273L); test: Mixed type inhibition of N-terminal His6-tagged SIRT1 F273L mutant (unknown origin) expressed in Escherichia coli BL21(DE3) using NAD+ as substrate by Lineweaver-Burk plot analysis in presence of ac-RHKKac-AMC
metric: pKi
Note on units: pKi is unitless, being -log10 of a concentration expressed in mol/L.

Item `O=C(c1cc(O)ccc1O)c1coc2ccc(O)cc12` : provide pKi
3.66

---

target: NAD-dependent protein deacetylase sirtuin-1 (Homo sapiens, UniProt Q96EB6, N346A); experiment: Mixed type inhibition of N-terminal His6-tagged SIRT1 N346A mutant (unknown origin) expressed in Escherichia coli BL21(DE3) using NAD+ as substrate by Lineweaver-Burk plot analysis in presence of ac-RHKKac-AMC
metric: pKi
Note on units: pKi is unitless, being -log10 of a concentration expressed in mol/L.

Item `O=C(c1cc(O)ccc1O)c1coc2ccc(O)cc12` : provide pKi
3.60

---

molecular target: NAD-dependent protein deacetylase sirtuin-1 (Homo sapiens, UniProt Q96EB6, F312L); experiment: Mixed type inhibition of N-terminal His6-tagged SIRT1 F312L mutant (unknown origin) expressed in Escherichia coli BL21(DE3) using NAD+ as substrate by Lineweaver-Burk plot analysis in presence of ac-RHKKac-AMC
metric: Ki
Phrase the answer as number then unit, nothing more needed.

Item `O=C(c1cc(O)ccc1O)c1coc2ccc(O)cc12` : provide Ki
254 µM

---

Target: NAD-dependent protein deacetylase sirtuin-1 (Homo sapiens)
Sequence (Q96EB6 whole entry): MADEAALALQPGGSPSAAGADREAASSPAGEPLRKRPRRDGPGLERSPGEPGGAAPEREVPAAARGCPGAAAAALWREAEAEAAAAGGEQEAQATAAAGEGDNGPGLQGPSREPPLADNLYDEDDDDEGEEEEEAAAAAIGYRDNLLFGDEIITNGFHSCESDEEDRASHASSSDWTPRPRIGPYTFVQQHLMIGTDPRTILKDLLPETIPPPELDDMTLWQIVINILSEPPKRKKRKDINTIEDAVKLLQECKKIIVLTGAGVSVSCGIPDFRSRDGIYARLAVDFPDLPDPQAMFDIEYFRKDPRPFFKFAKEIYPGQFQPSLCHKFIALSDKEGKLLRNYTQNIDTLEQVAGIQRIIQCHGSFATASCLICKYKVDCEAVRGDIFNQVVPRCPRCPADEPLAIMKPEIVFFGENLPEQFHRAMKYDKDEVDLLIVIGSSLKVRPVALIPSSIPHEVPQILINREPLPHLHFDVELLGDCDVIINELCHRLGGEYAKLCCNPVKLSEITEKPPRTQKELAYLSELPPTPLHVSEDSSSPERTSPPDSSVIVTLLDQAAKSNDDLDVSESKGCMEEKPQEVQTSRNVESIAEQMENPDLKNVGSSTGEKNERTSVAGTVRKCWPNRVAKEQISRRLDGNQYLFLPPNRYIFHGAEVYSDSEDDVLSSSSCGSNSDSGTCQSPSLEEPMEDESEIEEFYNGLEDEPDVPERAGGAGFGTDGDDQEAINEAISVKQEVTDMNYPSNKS
metric: IC50

These solved cases illustrate the format of a correct answer.
COc1ccc(OC)c(C(=O)c2coc3cc(Br)c(O)c(Br)c23)c1; > 300 µM
COc1cc2c(C(=O)c3ccc(Br)cc3)c(C)oc2c2ccccc12; > 300 µM
CC(=O)Oc1ccc2occ(C(=O)c3ccccc3)c2c1; > 300 µM
O=C(c1ccccc1O)c1coc2ccc(O)cc12; 71.4 µM
COc1ccc(OC)c(C(=O)c2coc3ccc(O)c(CN4CCOCC4)c23)c1; > 300 µM

Now take the following compound into account.
Item `Cc1oc2ccc(O)cc2c1C(=O)c1ccc(Br)cc1` : provide IC50
243 µM
